Source listed as patent US7303876B2.

Tested on: Liver tissue
Assay: Liver tissue disaggregation by 1% surfactant with or without Proteinase K at 60° C.
Design: scale not given here
Details: Fifteen Minutes Incubation, 60° C., 1% surfactant, Proteinase K not present (N)
Listed compounds paired with reported Tissue Disaggregation

> print(dat)
                                   compound  experimental.value
1  CCCCCCCCCCCCCCCCCC[N+](C)(C)Cc1ccccc1.[Cl-] [Mackernium SDC-85, Stearalkonium chloride]                   0
2  CCCCCCCCCCCC[N+](C)(C)Cc1ccccc1.[Br-] [Benzyldimethyldodecylammonium bromide]                   0

Fill in the blank: the reported Tissue Disaggregation of CCCCCCCC/C=C\CCCCCCCC[N+](C)(C)Cc1ccccc1.[Cl-] [Mackernium KP, olealkonium chloride] is ____. 0

###

System: slices of liver
Assay: Maceration of liver slices by reaction compositions at 65° C.
Conditions: 1 mg/ml Proteinase K, 16-24 hr, 65° C., additive 1%
Experimental: Initially, a series of reaction compositions were analyzed for their ability to disaggregate a biological sample, e.g., slices of liver. These reaction compositions comprised 100 mM Tris, pH 8.0, 20 mM dithiothreitol (DTT), and optionally,1 mg/ml Proteinase K, surfactants (e.g., cationic, nonionic and anionic detergents), chaotropes, or the additive 1-methyl-2-pyrollidinone (Sigma). Each reaction compositions was placed in a tube with a slice of liver and then incubated at 65° C. […]
Listed compounds paired with reported maceration of liver slice
Your answer is read as %, so omit the unit and give the number.

Observe how each entry below is paired with its result.
COMPOUND	OUTCOME_MEASURE	MEASUREMENT_UNIT	EXPERIMENTAL_VALUE
C[C@H](CCC(=O)NCCS(=O)(=O)O)[C@H]1CC[C@H]2[C@@H]3[C@H](O)C[C@@H]4C[C@H](O)CC[C@]4(C)[C@H]3CC[C@]12C [Taurochenodeoxycholic Acid]	maceration of liver slice	%	0
C[C@H](CCC(=O)NCC(=O)O)[C@H]1CC[C@H]2[C@@H]3[C@H](O)C[C@@H]4C[C@H](O)CC[C@]4(C)[C@H]3C[C@H](O)[C@]12C [Glycocholic Acid]	maceration of liver slice	%	0
CCCCC(CC)COS(=O)(=O)[O-].[Na+] (stereo not drawn) [NiaProof Type 8]	maceration of liver slice	%	0

Form field - read-out: maceration of liver slice; system: slices of liver; submitted item: C[C@H](CCC(=O)O)[C@H]1CC[C@H]2[C@@H]3[C@H](O)C[C@@H]4C[C@H](O)CC[C@]4(C)[C@H]3CC[C@]12C [Chenodeoxycholic Acid] 0

Form field - read-out: maceration of liver slice; system: slices of liver; submitted item: CCCCCCCCCCCCCCCC[N+](C)(C)C.[Br-] [CTAB, cetyltrimethylammonium bromide] 100

Form field - read-out: maceration of liver slice; system: slices of liver; submitted item: C[C@H](CCC(=O)NCCS(=O)(=O)O)[C@H]1CC[C@H]2[C@@H]3CC[C@@H]4C[C@H](O)CC[C@]4(C)[C@H]3C[C@H](O)[C@]12C [Taurodeoxycholic Acid] 0

###

Listed compounds paired with reported maceration of liver slice
System: slices of liver
Assay: Maceration of liver slices by reaction compositions at 65° C.
Details: 1 mg/ml Proteinase K, 1 hr, 65° C., additive 1%
I'd appreciate it if you wrote the number followed by its unit.

COMPOUND	TARGET_ENTITY	OUTCOME_MEASURE	EXPERIMENTAL_VALUE
CCCCCCCCCCCCCCCC[N+](C)(C)C.[Br-] [CTAB, cetyltrimethylammonium bromide]	slices of liver	maceration of liver slice	100%
C[C@H](CCC(=O)NCC(=O)O)[C@H]1CC[C@H]2[C@@H]3[C@H](O)C[C@@H]4C[C@H](O)CC[C@]4(C)[C@H]3C[C@H](O)[C@]12C [Glycocholic Acid]	slices of liver	maceration of liver slice	0%
C[C@H](CCC(=O)O)[C@H]1CC[C@H]2[C@@H]3[C@H](O)C[C@@H]4C[C@H](O)CC[C@]4(C)[C@H]3CC[C@]12C [Chenodeoxycholic Acid]	slices of liver	maceration of liver slice	0%

Fill in the blank: the reported maceration of liver slice of CCCCC(CC)COS(=O)(=O)[O-].[Na+] (stereo not drawn) [NiaProof Type 8] is ____. 0%

Fill in the blank: the reported maceration of liver slice of C[C@H](CCC(=O)NCCS(=O)(=O)O)[C@H]1CC[C@H]2[C@@H]3CC[C@@H]4C[C@H](O)CC[C@]4(C)[C@H]3C[C@H](O)[C@]12C [Taurodeoxycholic Acid] is ____. 0%

Fill in the blank: the reported maceration of liver slice of C[C@H](CCC(=O)NCCS(=O)(=O)O)[C@H]1CC[C@H]2[C@@H]3[C@H](O)C[C@@H]4C[C@H](O)CC[C@]4(C)[C@H]3CC[C@]12C [Taurochenodeoxycholic Acid] is ____. 0%

###

Listed compounds paired with reported Tissue Disaggregation
Tested on: Liver tissue
Test: Liver tissue disaggregation by 1% surfactant with or without Proteinase K at 60° C.
Design: scale not given here
Settings: Fifteen Minutes Incubation, 60° C., 1% surfactant, Proteinase K not present (N)
Protocol: To evaluate the ability of various cationic surfactants to increase the digestion of tissue by Proteinase K, liver slices were digested using reaction compositions including one of the sixteen surfactants (shown in Table 4), both with and without Proteinase K. The reducing agent dithiothreitol (DTT) was included to evaluate the effect of reducing conditions on tissue digestion. […] One of the sixteen surfactants was added to one pair of tubes to yield a final concentration of 1% surfactant. […]
No unit in the answer, only the number.

Observe how each entry below is paired with its result.
> print(dat)
                                   compound  experimental.value
1  CCCCCCCCCCCCOS(=O)(=O)[O-].[Na+] [SDS, sodium dodecyl sulfate]                   0
2  CCCCCCCCCCCCCCCC[N+](C)(C)C.[Br-] [Hexadecyltrimethylammonium bromide, hexadecyltrimethylammonium bromide]                   0

// next item, Tissue Disaggregation requested
Fill in the blank: the reported Tissue Disaggregation of CCCCCCCCCCCCCCCC[N+](C)(C)Cc1ccccc1.[Br-] [Benzyldimethylhexadecylammonium bromide] is ____. 0
